systemName: Adenosine receptor A1 (Homo sapiens, UniProt P30542)
Sequence (P30542 whole entry): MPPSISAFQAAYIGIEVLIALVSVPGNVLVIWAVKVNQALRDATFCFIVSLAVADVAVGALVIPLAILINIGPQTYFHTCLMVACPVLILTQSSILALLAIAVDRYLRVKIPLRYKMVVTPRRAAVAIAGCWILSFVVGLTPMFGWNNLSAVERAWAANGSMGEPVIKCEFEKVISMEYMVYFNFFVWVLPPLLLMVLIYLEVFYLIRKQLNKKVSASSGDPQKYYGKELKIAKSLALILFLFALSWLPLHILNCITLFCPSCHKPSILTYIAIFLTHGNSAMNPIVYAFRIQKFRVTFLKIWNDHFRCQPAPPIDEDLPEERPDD
Known Ki of a selection of compounds
parameterMeasured: Ki (nM)

Cc1cc(-c2c(-c3ccc(F)cc3)nc(N)n3c(=O)n(Cc4ccc(Cl)cn4)nc23)cc2ocnc12 : 63.1
Cc1cc(-c2c(-c3ccccc3)nc(N)n3c(=O)n(Cc4ccc(F)cn4)nc23)cc(C)c1O : 100
